From: ChEMBL document CHEMBL1125337

Test: Association constant to Ac2-L-Lys-D-Ala-D-Ala determined at pH 9; Value ranges from (9.5E4-3.5E5)
Observed Property: Ka (M⁻¹)
Dear colleague, please return just the value in M⁻¹, with no unit written.

Substance Smiles: CC(=O)N[C@@H]1[C@H](O[C@@H]2c3ccc(c(Cl)c3)Oc3cc4cc(c3O[C@@H]3O[C@@H](CO)[C@@H](O)[C@H](O)[C@@H]3NC(=O)CCCCCCC(C)C)Oc3ccc(cc3Cl)C[C@H]3NC(=O)[C@H](N)c5ccc(O)c(c5)Oc5cc(O)cc(c5)[C@H](NC3=O)C(=O)N[C@H]4C(=O)N[C@H]3C(=O)N[C@@H]2C(=O)N[C@H](C(=O)NCCCN(CCCN)CCCN)c2cc(O)cc(O[C@H]4O[C@H](CO)[C@@H](O)[C@@H](O)[C@@H]4O)c2-c2cc3ccc2O)O[C@@H](CO)[C@@H](O)[C@@H]1O
Observed Property: Ka
Observed Measurement: 350000

Q: Recorded Ka for `CC(=O)N[C@@H]1[C@H](O[C@@H]2c3ccc(c(Cl)c3)Oc3cc4cc(c3O[C@@H]3O[C@@H](CO)[C@@H](O)[C@H](O)[C@@H]3NC(=O)CCCCCCC(C)C)Oc3ccc(cc3Cl)C[C@H]3NC(=O)[C@H](N)c5ccc(O)c(c5)Oc5cc(O)cc(c5)[C@H](NC3=O)C(=O)N[C@H]4C(=O)N[C@H]3C(=O)N[C@@H]2C(=O)N[C@H](C(=O)NCCCN2CCCCNCCCC2)c2cc(O)cc(O[C@H]4O[C@H](CO)[C@@H](O)[C@@H](O)[C@@H]4O)c2-c2cc3ccc2O)O[C@@H](CO)[C@@H](O)[C@@H]1O` , please?
A: 350000

---

Test system: Streptococcus pneumoniae
Test: Minimum inhibitory concentration against Streptococcus pneumoniae L 44
Format: functional
Observed Property: MIC
Express the reported value numerically, then name its unit.

Q: Recorded MIC for `CC(=O)N[C@@H]1[C@H](O[C@@H]2c3ccc(c(Cl)c3)Oc3cc4cc(c3O[C@@H]3O[C@@H](CO)[C@@H](O)[C@H](O)[C@@H]3NC(=O)CCCCCCC(C)C)Oc3ccc(cc3Cl)C[C@H]3NC(=O)[C@H](N)c5ccc(O)c(c5)Oc5cc(O)cc(c5)[C@H](NC3=O)C(=O)N[C@H]4C(=O)N[C@H]3C(=O)N[C@@H]2C(=O)N[C@H](C(=O)NCCNCCNCCNCCNCCN)c2cc(O)cc(O[C@H]4O[C@H](CO)[C@@H](O)[C@@H](O)[C@@H]4O)c2-c2cc3ccc2O)O[C@@H](CO)[C@@H](O)[C@@H]1O` , please?
A: 0.125 µg/mL

---

Test system: Streptococcus pyogenes
Test: Minimum inhibitory concentration of compound was determined against Streptococcus pyogenes L 49 in mouse
Format: functional
Observed Property: MIC (µg/mL)
Dear colleague, please return just the value in µg/mL, with no unit written.

Substance Smiles: NCCCNCCCCNCCCNC(=O)[C@H]1NC(=O)[C@H]2NC(=O)[C@H](NC(=O)[C@@H]3NC(=O)[C@H]4NC(=O)[C@@H](Cc5ccc(c(Cl)c5)Oc5cc3cc(c5O)Oc3ccc(cc3Cl)[C@H]2O)NC(=O)[C@H](N)c2ccc(O)c(c2)Oc2cc(O)cc4c2)c2ccc(O)c(c2)-c2c(O)cc(O)cc21
Display Unit: µg/mL
MIC: 0.06

# context switch: different compound, same MIC
Q: Query for Streptococcus pyogenes: what MIC does the record show for `CNCCCN(C)C(=O)[C@H]1NC(=O)[C@H]2NC(=O)[C@H](NC(=O)[C@@H]3NC(=O)[C@H]4NC(=O)[C@@H](Cc5ccc(c(Cl)c5)Oc5cc3cc(c5O)Oc3ccc(cc3Cl)[C@H]2O)NC(=O)[C@H](N)c2ccc(O)c(c2)Oc2cc(O)cc4c2)c2ccc(O)c(c2)-c2c(O)cc(O)cc21` ?
A: 0.06

---

Test system: Staphylococcus epidermidis
Assay: Minimum inhibitory concentration against Staphylococcus epidermidis ATCC 12228
Assay type: functional
The following molecules are listed with their measured MIC values.
Dear colleague, please return just the value in mg/L, with no unit written.

Substance Smiles: CCN(CC)CCN(CCCN)CCCNC(=O)[C@H]1NC(=O)[C@H]2NC(=O)[C@H](NC(=O)[C@@H]3NC(=O)[C@H]4NC(=O)[C@@H](Cc5ccc(c(Cl)c5)Oc5cc3cc(c5O)Oc3ccc(cc3Cl)[C@H]2O)NC(=O)[C@H](N)c2ccc(O)c(c2)Oc2cc(O)cc4c2)c2ccc(O)c(c2)-c2c(O)cc(O)cc21
Display Unit: mg/L
MIC: 0.032

# context switch: different molecule, same MIC
Q: Recorded MIC for `NCCCNCCCNC(=O)[C@H]1NC(=O)[C@H]2NC(=O)[C@H](NC(=O)[C@@H]3NC(=O)[C@H]4NC(=O)[C@@H](Cc5ccc(c(Cl)c5)Oc5cc3cc(c5O)Oc3ccc(cc3Cl)[C@H]2O)NC(=O)[C@H](N)c2ccc(O)c(c2)Oc2cc(O)cc4c2)c2ccc(O)c(c2)-c2c(O)cc(O)cc21` , please?
A: 0.032

---

Tested on: Streptococcus pneumoniae
Experiment: Minimum inhibitory concentration against Streptococcus pneumoniae L 44
Format: functional
The following compounds are listed with their measured MIC values.
Dear colleague, please return just the value in µg/mL, with no unit written.

Substance Smiles: NCCCNCCCCNCCCNC(=O)[C@H]1NC(=O)[C@H]2NC(=O)[C@H](NC(=O)[C@@H]3NC(=O)[C@H]4NC(=O)[C@@H](Cc5ccc(c(Cl)c5)Oc5cc3cc(c5O)Oc3ccc(cc3Cl)[C@H]2O)NC(=O)[C@H](N)c2ccc(O)c(c2)Oc2cc(O)cc4c2)c2ccc(O)c(c2)-c2c(O)cc(O)cc21
Measured On: Streptococcus pneumoniae
MIC / µg/mL: 0.125

# context switch: different compound, same MIC
Q: Query for Streptococcus pneumoniae: what MIC does the record show for `N[C@H]1C(=O)N[C@@H]2Cc3ccc(c(Cl)c3)Oc3cc4cc(c3O)Oc3ccc(cc3Cl)[C@@H](O)[C@@H]3NC(=O)[C@H](NC(=O)[C@@H]4NC(=O)[C@@H](NC2=O)c2cc(O)cc(c2)Oc2cc1ccc2O)c1ccc(O)c(c1)-c1c(O)cc(O)cc1[C@@H](C(=O)O)NC3=O` ?
A: 0.125

---

The following molecules are listed with their measured MIC values.
Test system: Staphylococcus epidermidis
Test: Minimum inhibitory concentration against Staphylococcus epidermidis ATCC 12228
Type: functional
Express the reported value numerically, then name its unit.

Substance Smiles: NCCCN1CCCCN(CCCNC(=O)[C@H]2NC(=O)[C@H]3NC(=O)[C@H](NC(=O)[C@@H]4NC(=O)[C@H]5NC(=O)[C@@H](Cc6ccc(c(Cl)c6)Oc6cc4cc(c6O)Oc4ccc(cc4Cl)[C@H]3O)NC(=O)[C@H](N)c3ccc(O)c(c3)Oc3cc(O)cc5c3)c3ccc(O)c(c3)-c3c(O)cc(O)cc32)CCCC1
MIC: 0.063 µg/mL

Substance Smiles: N[C@H]1C(=O)N[C@@H]2Cc3ccc(c(Cl)c3)Oc3cc4cc(c3O)Oc3ccc(cc3Cl)[C@@H](O)[C@@H]3NC(=O)[C@H](NC(=O)[C@@H]4NC(=O)[C@@H](NC2=O)c2cc(O)cc(c2)Oc2cc1ccc2O)c1ccc(O)c(c1)-c1c(O)cc(O)cc1[C@@H](C(=O)O)NC3=O
MIC: 0.016 µg/mL

# context switch: different molecule, same MIC
Q: Query for Staphylococcus epidermidis: what MIC does the record show for `CC(=O)N[C@@H]1[C@H](O[C@@H]2c3ccc(c(Cl)c3)Oc3cc4cc(c3O[C@@H]3O[C@@H](CO)[C@@H](O)[C@H](O)[C@@H]3NC(=O)CCCCCCC(C)C)Oc3ccc(cc3Cl)C[C@H]3NC(=O)[C@H](N)c5ccc(O)c(c5)Oc5cc(O)cc(c5)[C@H](NC3=O)C(=O)N[C@H]4C(=O)N[C@H]3C(=O)N[C@@H]2C(=O)N[C@H](C(=O)NCCCN2CCCCNCCCC2)c2cc(O)cc(O[C@H]4O[C@H](CO)[C@@H](O)[C@@H](O)[C@@H]4O)c2-c2cc3ccc2O)O[C@@H](CO)[C@@H](O)[C@@H]1O` ?
A: 0.063 µg/mL

---

System: Staphylococcus epidermidis
Test: Minimum inhibitory concentration against Staphylococcus epidermidis ATCC 12228
Format: functional
The following molecules are listed with their measured MIC values.
Dear colleague, please return just the value in µg/mL, with no unit written.

Substance Smiles: NCCN(CCN)CCNC(=O)[C@H]1NC(=O)[C@H]2NC(=O)[C@H](NC(=O)[C@@H]3NC(=O)[C@H]4NC(=O)[C@@H](Cc5ccc(c(Cl)c5)Oc5cc3cc(c5O)Oc3ccc(cc3Cl)[C@H]2O)NC(=O)[C@H](N)c2ccc(O)c(c2)Oc2cc(O)cc4c2)c2ccc(O)c(c2)-c2c(O)cc(O)cc21
MIC [µg/mL]: 0.016

Q: Query for Staphylococcus epidermidis: what MIC does the record show for `CN(C)CCCN1CCCCN(C(=O)[C@H]2NC(=O)[C@H]3NC(=O)[C@H](NC(=O)[C@@H]4NC(=O)[C@H]5NC(=O)[C@@H](Cc6ccc(c(Cl)c6)Oc6cc4cc(c6O)Oc4ccc(cc4Cl)[C@H]3O)NC(=O)[C@H](N)c3ccc(O)c(c3)Oc3cc(O)cc5c3)c3ccc(O)c(c3)-c3c(O)cc(O)cc32)CCCC1` ?
A: 0.063

Q: Query for Staphylococcus epidermidis: what MIC does the record show for `CC(=O)N[C@@H]1[C@H](O[C@@H]2c3ccc(c(Cl)c3)Oc3cc4cc(c3O[C@@H]3O[C@@H](CO)[C@@H](O)[C@H](O)[C@@H]3NC(=O)CCCCCCC(C)C)Oc3ccc(cc3Cl)C[C@H]3NC(=O)[C@H](N)c5ccc(O)c(c5)Oc5cc(O)cc(c5)[C@H](NC3=O)C(=O)N[C@H]4C(=O)N[C@H]3C(=O)N[C@@H]2C(=O)N[C@H](C(=O)NCCCNCCCN)c2cc(O)cc(O[C@H]4O[C@H](CO)[C@@H](O)[C@@H](O)[C@@H]4O)c2-c2cc3ccc2O)O[C@@H](CO)[C@@H](O)[C@@H]1O` ?
A: 0.25

Q: Query for Staphylococcus epidermidis: what MIC does the record show for `CC(=O)N[C@@H]1[C@H](O[C@@H]2c3ccc(c(Cl)c3)Oc3cc4cc(c3O[C@@H]3O[C@@H](CO)[C@@H](O)[C@H](O)[C@@H]3NC(=O)CCCCCCC(C)C)Oc3ccc(cc3Cl)C[C@H]3NC(=O)[C@H](N)c5ccc(O)c(c5)Oc5cc(O)cc(c5)[C@H](NC3=O)C(=O)N[C@H]4C(=O)N[C@H]3C(=O)N[C@@H]2C(=O)N[C@H](C(=O)NCCCNCCCCNCCCN)c2cc(O)cc(O[C@H]4O[C@H](CO)[C@@H](O)[C@@H](O)[C@@H]4O)c2-c2cc3ccc2O)O[C@@H](CO)[C@@H](O)[C@@H]1O` ?
A: 0.063

Q: Query for Staphylococcus epidermidis: what MIC does the record show for `NCCCNCCCNCCCNC(=O)[C@H]1NC(=O)[C@H]2NC(=O)[C@H](NC(=O)[C@@H]3NC(=O)[C@H]4NC(=O)[C@@H](Cc5ccc(c(Cl)c5)Oc5cc3cc(c5O)Oc3ccc(cc3Cl)[C@H]2O)NC(=O)[C@H](N)c2ccc(O)c(c2)Oc2cc(O)cc4c2)c2ccc(O)c(c2)-c2c(O)cc(O)cc21` ?
A: 0.016
